# tgt: Chymase, from human skin (Homo sapiens)
# Sequence (P23946 22-247): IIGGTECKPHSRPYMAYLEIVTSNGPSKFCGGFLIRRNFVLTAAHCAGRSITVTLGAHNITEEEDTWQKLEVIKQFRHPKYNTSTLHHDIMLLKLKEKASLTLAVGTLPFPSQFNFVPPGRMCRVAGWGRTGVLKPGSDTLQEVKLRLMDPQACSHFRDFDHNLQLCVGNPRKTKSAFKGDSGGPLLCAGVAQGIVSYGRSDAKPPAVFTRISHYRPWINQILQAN
# assay procedure: Enzymatic assay, chymase
Where a SMILES comes first, the peptide text is derived from it.
As shown below, each of these compounds has a reported Chymase at 100 μM % value.
The figure you give is taken to be in %; do not add the unit.

[[record]]
compound = "CC[C@H](C)[C@@H]1NC(=O)[C@@H]2CCCN2C(=O)[C@@H]2CCCN2C(=O)[C@H](CC(=O)O)NC(=O)[C@H](CO)NC(=O)[C@H](CCCCN)NC(=O)[C@H]([C@@H](C)O)NC(=O)[C@@H]2CSSC[C@H](NC1=O)C(=O)N[C@@H](CC(=O)O)C(=O)N1CCC[C@@H]1C(=O)N1CCC[C@H]1C(=O)N[C@@H](Cc1ccccc1)C(=O)N2 [Ex. 2] (HELM PEPTIDE1{F.C.T.K.S.D.P.P.I.C.D.[dP].P}$PEPTIDE1,PEPTIDE1,2:R3-10:R3|PEPTIDE1,PEPTIDE1,1:R1-13:R2$$$V2.0)"
measurement_kind = "Chymase at 100 μM %"
result = 0


Please turn your attention to the following entry.
Tested on Chymase, from human skin (Homo sapiens): CCCC[C@@H]1NC(=O)[C@H]([C@@H](C)O)NC(=O)[C@@H]2CSSC[C@H](NC(=O)[C@H]([C@@H](C)CC)NC(=O)[C@@H]3CCCN3C(=O)[C@@H]3CCCN3C(=O)[C@H](CC(=O)O)NC(=O)[C@H](CO)NC1=O)C(=O)N[C@@H](Cc1ccc(O)cc1)C(=O)N1CCC[C@@H]1C(=O)N1CCC[C@H]1C(=O)N[C@@H](Cc1ccccc1)C(=O)N2 [Ex. 23] (HELM PEPTIDE1{F.C.T.[Nle].S.D.P.P.I.C.Y.[dP].P}$PEPTIDE1,PEPTIDE1,2:R3-10:R3|PEPTIDE1,PEPTIDE1,1:R1-13:R2$$$V2.0) . Observed Chymase at 100 μM %: 60

###

# Tested on: HELA cells (Acc57)
# assay procedure: Cytotoxicity assay (MTT reduction), HELA cells
# Type: cell-based
# assay conditions: Hela cells
Where a SMILES comes first, the peptide text is derived from it.
measurement kind: Cytotoxicity LC50/GI50 Hela cells (µM)
The figure you give is taken to be in µM; do not add the unit.

Solved cases below.
[[record]]
molecule = "CCCCCC[C@@H]1NC(=O)[C@@H]2CCCN2C(=O)[C@H]2CCCN2C(=O)[C@H](Cc2ccc(O)cc2)NC(=O)[C@@H]2CSSC[C@H](NC1=O)C(=O)N[C@@H]([C@@H](C)O)C(=O)N[C@@H](C)C(=O)N[C@@H](CO)C(=O)N[C@@H]([C@@H](C)CC)C(=O)N1CCC[C@H]1C(=O)N1CCC[C@H]1C(=O)N[C@@H](CCC(N)=O)C(=O)N2 [Ex. 99] (HELM PEPTIDE1{[CCCCCC[C@H](N[*:1])C(=O)[*:2]].C.T.A.S.I.P.P.Q.C.Y.[dP].P}$PEPTIDE1,PEPTIDE1,2:R3-10:R3|PEPTIDE1,PEPTIDE1,1:R1-13:R2$$$V2.0)"
units_label = "µM"
result = 58

[[record]]
molecule = "CC[C@H](C)[C@@H]1NC(=O)[C@@H]2CCCN2C(=O)[C@H]2CCCN2C(=O)[C@H](Cc2ccc(O)cc2)NC(=O)[C@@H]2CSSC[C@H](NC1=O)C(=O)N[C@@H]([C@@H](C)O)C(=O)N[C@@H](C)C(=O)N[C@@H](CO)C(=O)N[C@@H](CC(C)C)C(=O)N1CCC[C@H]1C(=O)N1CCC[C@H]1C(=O)N[C@@H](Cc1ccc(O)cc1)C(=O)N2 [Ex. 114] (HELM PEPTIDE1{I.C.T.A.S.L.P.P.Y.C.Y.[dP].P}$PEPTIDE1,PEPTIDE1,2:R3-10:R3|PEPTIDE1,PEPTIDE1,1:R1-13:R2$$$V2.0)"
units_label = "µM"
result = 34

[[record]]
molecule = "CC[C@H](C)[C@@H]1NC(=O)[C@@H]2CCCN2C(=O)[C@H]2CCCN2C(=O)[C@H](CCCNC(=N)N)NC(=O)[C@@H]2CSSC[C@H](NC1=O)C(=O)N[C@@H]([C@@H](C)O)C(=O)N[C@@H](CCCCN)C(=O)N[C@@H](CO)C(=O)N[C@@H](CC(=O)O)C(=O)N1CCC[C@H]1C(=O)N1CCC[C@H]1C(=O)N[C@@H](CC1CCCCC1)C(=O)N2 [Ex. 58] (HELM PEPTIDE1{I.C.T.K.S.D.P.P.[Cha].C.R.[dP].P}$PEPTIDE1,PEPTIDE1,2:R3-10:R3|PEPTIDE1,PEPTIDE1,1:R1-13:R2$$$V2.0)"
units_label = "µM"
result = 100

[[record]]
molecule = "CC[C@H](C)[C@@H]1NC(=O)[C@@H]2CCCN2C(=O)[C@@H]2CCCN2C(=O)[C@H](CC(=O)O)NC(=O)[C@H](CO)NC(=O)[C@H](CCCCN)NC(=O)[C@H]([C@@H](C)O)NC(=O)[C@@H]2CSSC[C@H](NC1=O)C(=O)N[C@@H](CO)C(=O)N1CCC[C@@H]1C(=O)N[C@@H](CCC(=O)O)C(=O)N[C@@H](Cc1ccccc1)C(=O)N2 [Ex. 64] (HELM PEPTIDE1{F.C.T.K.S.D.P.P.I.C.S.[dP].E}$PEPTIDE1,PEPTIDE1,2:R3-10:R3|PEPTIDE1,PEPTIDE1,1:R1-13:R2$$$V2.0)"
units_label = "µM"
result = 59

[[record]]
molecule = "CCCC[C@@H]1NC(=O)[C@@H]2CCCN2C(=O)[C@H]2CCCN2C(=O)[C@H](Cc2ccccc2)NC(=O)[C@@H]2CSSC[C@H](NC1=O)C(=O)N[C@@H]([C@@H](C)O)C(=O)N[C@@H](C)C(=O)N[C@@H](CO)C(=O)N[C@@H]([C@@H](C)CC)C(=O)N1CCC[C@H]1C(=O)N1CCC[C@H]1C(=O)N[C@@H](CCC(N)=O)C(=O)N2 [Ex. 90] (HELM PEPTIDE1{[Nle].C.T.A.S.I.P.P.Q.C.F.[dP].P}$PEPTIDE1,PEPTIDE1,2:R3-10:R3|PEPTIDE1,PEPTIDE1,1:R1-13:R2$$$V2.0)"
units_label = "µM"
result = 96

[[record]]
molecule = "CCCC[C@@H]1NC(=O)[C@H]([C@@H](C)O)NC(=O)[C@@H]2CSSC[C@H](NC(=O)[C@H]([C@@H](C)CC)NC(=O)[C@@H]3CCCN3C(=O)[C@@H]3CCCN3C(=O)[C@H](CC(=O)O)NC(=O)[C@H](CO)NC1=O)C(=O)N[C@@H](Cc1ccc(O)cc1)C(=O)N1CCC[C@@H]1C(=O)N1CCC[C@H]1C(=O)N[C@@H](Cc1ccccc1)C(=O)N2 [Ex. 60] (HELM PEPTIDE1{F.C.T.[Nle].S.D.P.P.I.C.Y.[dP].P}$PEPTIDE1,PEPTIDE1,2:R3-10:R3|PEPTIDE1,PEPTIDE1,1:R1-13:R2$$$V2.0)"
units_label = "µM"
result = 51


Tested on HELA cells (Acc57): CCCC[C@@H]1NC(=O)[C@@H]2CCCN2C(=O)[C@@H](CCCNC(=N)N)NC(=O)[C@H](Cc2ccc(O)cc2)NC(=O)[C@@H]2CSSC[C@H](NC1=O)C(=O)N[C@@H]([C@@H](C)O)C(=O)N[C@@H](C)C(=O)N[C@@H](CO)C(=O)N[C@@H]([C@@H](C)CC)C(=O)N1CCC[C@H]1C(=O)N1CCC[C@H]1C(=O)N[C@@H](CCC(N)=O)C(=O)N2 [Ex. 117] (HELM PEPTIDE1{A.S.I.P.P.Q.C.Y.[dR].P.[Nle].C.T}$PEPTIDE1,PEPTIDE1,7:R3-12:R3|PEPTIDE1,PEPTIDE1,1:R1-13:R2$$$V2.0) . Observed Cytotoxicity LC50/GI50 Hela cells: 29

Tested on HELA cells (Acc57): CC[C@H](C)[C@@H]1NC(=O)[C@@H]2CCCN2C(=O)[C@@H]2CCCN2C(=O)[C@H](CC(=O)O)NC(=O)[C@H](CO)NC(=O)[C@H](CCCCN)NC(=O)[C@H]([C@@H](C)O)NC(=O)[C@@H]2CSSC[C@H](NC1=O)C(=O)N[C@@H](CO)C(=O)N1CCC[C@@H]1C(=O)N1CCC[C@H]1C(=O)N[C@@H](Cc1ccccc1)C(=O)N2 [Ex. 4] (HELM PEPTIDE1{F.C.T.K.S.D.P.P.I.C.S.[dP].P}$PEPTIDE1,PEPTIDE1,2:R3-10:R3|PEPTIDE1,PEPTIDE1,1:R1-13:R2$$$V2.0) . Observed Cytotoxicity LC50/GI50 Hela cells: 100

Reference source: patent US8658604B2
